Reported Kd values for the following binders.
# target_entity: T1, N-terminally tagged P672 (P672_RHIPU), glycosylated (Rhipicephalus pulchellus, UniProt L7MC74 22-125)
# T1 construct: source: HEK293F, transiently transfected, purified from culture supernatant (nickel IMAC, size exclusion chromatography)
# T1 sequence: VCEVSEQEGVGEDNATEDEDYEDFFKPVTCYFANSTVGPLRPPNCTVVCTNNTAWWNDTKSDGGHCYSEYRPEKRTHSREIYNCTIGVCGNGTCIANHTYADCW
# protocol_summary: BLI
# study_conditions: both partners purified
quantity: Kd

[[record]]
binder = "CCL18 (ligand, human, UniProt P55774 21-89, looked up) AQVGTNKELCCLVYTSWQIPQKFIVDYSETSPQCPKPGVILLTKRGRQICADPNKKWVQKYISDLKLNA"
quantity = "Kd"
measurement = "< 10 nM"

[[record]]
binder = "CCL14 (ligand, human, UniProt Q16627 20-93, looked up) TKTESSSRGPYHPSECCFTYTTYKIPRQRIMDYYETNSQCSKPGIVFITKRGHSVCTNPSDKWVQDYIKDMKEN"
quantity = "Kd"
measurement = "< 10 nM"

[[record]]
binder = "CCL23 (ligand, human, UniProt P55773 22-120, looked up) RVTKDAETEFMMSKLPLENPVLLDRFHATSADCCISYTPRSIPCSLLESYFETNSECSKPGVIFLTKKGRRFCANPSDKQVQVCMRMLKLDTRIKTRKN"
quantity = "Kd"
measurement = "< 10 nM"


Numbers sourced from paper PMC5912465.
